Entries annotated with measured viability, T/C
System: 855422-203-R-J1-PDC complex spheroids, viability
Experiment: Anticancer human tumor 855422-203-R-J1-PDC patient-derived bladder carcinoma cell line growth inhibition [CLK]
Conditions: second compound 1 µM; first compound 0.0316 µM; hits give low values
From the text: A high-throughput screen of multi-cell type tumor spheroids was designed to identify active combinations of […] and targeted small molecules. Complex spheroids include a stromal component modeled by human endothelial cells (HUVEC) and fibroblasts modeled by human mesenchymal stem cells (MSCs). […] Compounds. […] If the clinical Cmax for an agent had not been determined, the highest concentration tested was 10 microM. […]
Express the result in % but write the number alone.

INSERT INTO measurements (compound, target_under_test, endpoint, observed_value) VALUES
  ('O=C(c1cc(Cc2n[nH]c(=O)c3ccccc23)ccc1F)N1CCN(C(=O)C2CC2)CC1 + CNC(=O)c1ccc(Nc2nc(OC3CCCC3)c3c(-c4ccc5nc(C)oc5c4)c[nH]c3n2)c(OC)c1', '855422-203-R-J1-PDC complex spheroids, viability', 'viability, T/C', 24.4),
  ('CC(=O)O[C@H]1C(=O)[C@@]2(C)[C@H]([C@H](OC(=O)c3ccccc3)[C@]3(O)C[C@H](OC(=O)[C@H](O)[C@@H](NC(=O)c4ccccc4)c4ccccc4)C(C)=C1C3(C)C)[C@]1(OC(C)=O)CO[C@@H]1C[C@@H]2O + CNC(=O)c1ccc(Nc2nc(OC3CCCC3)c3c(-c4ccc5nc(C)oc5c4)c[nH]c3n2)c(OC)c1', '855422-203-R-J1-PDC complex spheroids, viability', 'viability, T/C', 32);

Kindly consider the entry below.
**Q:** Which viability, T/C is reported for this compound? COC1C=CCC(C)C(C)S(=O)(=O)NC(=O)c2ccc3c(c2)N(CC2CCC21)CC1(CCCc2cc(Cl)ccc21)CO3 (stereo not drawn) + CNC(=O)c1ccc(Nc2nc(OC3CCCC3)c3c(-c4ccc5nc(C)oc5c4)c[nH]c3n2)c(OC)c1
**A:** 19.8

====

System: 855422-203-R-J1-PDC complex spheroids, viability
Assay: Anticancer human tumor 855422-203-R-J1-PDC cell line growth inhibition [CLK];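 note: spheroids exposed to drugs for seven days before readout; 100% = DMSO vehicle control wells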
Conditions: second compound 3.16 µM; first compound 0.0316 µM; hits give low values
Entries annotated with measured viability, T/C
Express the result in % but write the number alone.

Record excerpt, results attached:
INSERT INTO assay_data (molecule, observed_value) VALUES
  ('O=c1[nH]cc(F)c(=O)[nH]1 + CNC(=O)c1ccc(Nc2nc(OC3CCCC3)c3c(-c4ccc5nc(C)oc5c4)c[nH]c3n2)c(OC)c1', 25.1),
  ('CC1COCCN1c1cc(C2(S(C)(=N)=O)CC2)nc(-c2ccnc3[nH]ccc23)n1 (stereo not drawn) + CN1CCN(c2cc(C(=O)Nc3cc4cc(-c5cnn(C)c5)ccc4cn3)ccn2)CC1', 0.75);

Kindly consider the entry below.
**Q:** Which viability, T/C is reported for this molecule? COc1cccc2c1C(=O)c1c(O)c3c(c(O)c1C2=O)CC(O)(C(=O)CO)CC3OC1CC(N)C(O)C(C)O1 (stereo not drawn) + CN1CCN(c2cc(C(=O)Nc3cc4cc(-c5cnn(C)c5)ccc4cn3)ccn2)CC1
**A:** 0.29

====

System: 855422-203-R-J1-PDC complex spheroids, viability
Assay: Anticancer human tumor 855422-203-R-J1-PDC cell line growth inhibition [CLK]; active = viability on the fitted dose curve at most 10% of control; inactive = the rest;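 note: spheroids exposed to drugs for seven days before readout; 100% = DMSO vehicle control wells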
Settings: second compound 0.1 µM; first compound 1 µM
Output constraint: value belongs to T = active, F = inactive

Examples with answers:
INSERT INTO assay_data (compound, category_label) VALUES
  ('C=CC(=O)N1CCN(c2nc(=O)n(-c3c(C)ccnc3C(C)C)c3nc(-c4c(O)cccc4F)c(F)cc23)C(C)C1 (stereo unspecified) + CN1CCN(c2cc(C(=O)Nc3cc4cc(-c5cnn(C)c5)ccc4cn3)ccn2)CC1', 'F'),
  ('CCCS(=O)(=O)Nc1ccc(F)c(C(=O)c2c[nH]c3ncc(-c4ccc(Cl)cc4)cc23)c1F + CNC(=O)c1ccc(Nc2nc(OC3CCCC3)c3c(-c4ccc5nc(C)oc5c4)c[nH]c3n2)c(OC)c1', 'F'),
  ('CCCS(=O)(=O)Nc1ccc(F)c(C(=O)c2c[nH]c3ncc(-c4ccc(Cl)cc4)cc23)c1F + CN1CCN(c2cc(C(=O)Nc3cc4cc(-c5cnn(C)c5)ccc4cn3)ccn2)CC1', 'F'),
  ('CCN1CCN(Cc2ccc(Nc3ncc(F)c(-c4cc(F)c5nc(C)n(C(C)C)c5c4)n3)nc2)CC1 + CNC(=O)c1ccc(Nc2nc(OC3CCCC3)c3c(-c4ccc5nc(C)oc5c4)c[nH]c3n2)c(OC)c1', 'F'),
  ('COC1C=CCC(C)C(C)S(=O)(=O)NC(=O)c2ccc3c(c2)N(CC2CCC21)CC1(CCCc2cc(Cl)ccc21)CO3 (stereo unspecified) + CN1CCN(c2cc(C(=O)Nc3cc4cc(-c5cnn(C)c5)ccc4cn3)ccn2)CC1', 'F');

**Q:** Given Nc1ccccc1NC(=O)c1ccc(CNC(=O)OCc2cccnc2)cc1 + CN1CCN(c2cc(C(=O)Nc3cc4cc(-c5cnn(C)c5)ccc4cn3)ccn2)CC1 , state the outcome it received in this test.
**A:** F

**Q:** Given Nc1ccn(C2OC(CO)C(O)C2(F)F)c(=O)n1 (stereo unspecified) + CNC(=O)c1ccc(Nc2nc(OC3CCCC3)c3c(-c4ccc5nc(C)oc5c4)c[nH]c3n2)c(OC)c1 , state the outcome it received in this test.
**A:** T

**Q:** Given C=C(F)C(=O)N1CCN(c2nc(OCC3CCCN3C)nc3c2CCN(c2cccc4cccc(Cl)c24)C3)CC1CC#N (stereo unspecified) + CNC(=O)c1ccc(Nc2nc(OC3CCCC3)c3c(-c4ccc5nc(C)oc5c4)c[nH]c3n2)c(OC)c1 , state the outcome it received in this test.
**A:** F

====

System: 855422-203-R-J1-PDC complex spheroids, viability
Assay: Anticancer human tumor 855422-203-R-J1-PDC cell line growth inhibition [CLK];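 note: spheroids exposed to drugs for seven days before readout; 100% = DMSO vehicle control wells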
Conditions: second compound 10 µM; first compound 0.00949 µM; hits give low values
Endpoint: viability, T/C (%)
Express the result in % but write the number alone.

Record excerpt, results attached:
INSERT INTO results (molecule, result_unit, observed_value) VALUES
  ('C=CC(=O)Nc1cc(Nc2nccc(-c3cn(C)c4ccccc34)n2)c(OC)cc1N(C)CCN(C)C + CNC(=O)c1ccc(Nc2nc(OC3CCCC3)c3c(-c4ccc5nc(C)oc5c4)c[nH]c3n2)c(OC)c1', '%', 18.3),
  ('CC(C)CC(NC(=O)C(Cc1ccccc1)NC(=O)c1cnccn1)B(O)O (stereo unspecified) + CNC(=O)c1ccc(Nc2nc(OC3CCCC3)c3c(-c4ccc5nc(C)oc5c4)c[nH]c3n2)c(OC)c1', '%', 0.13);

Kindly consider the entry below.
**Q:** Which viability, T/C is reported for this molecule? C=CC(=O)Nc1cc(Nc2nccc(-c3cn(C)c4ccccc34)n2)c(OC)cc1N(C)CCN(C)C + CN1CCN(c2cc(C(=O)Nc3cc4cc(-c5cnn(C)c5)ccc4cn3)ccn2)CC1
**A:** 0.52

====

System: 855422-203-R-J1-PDC complex spheroids, viability
Experiment: Anticancer human tumor 855422-203-R-J1-PDC cell line growth inhibition [CLK];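 note: spheroids exposed to drugs for seven days before readout; 100% = DMSO vehicle control wells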
Conditions: second compound 0.0316 µM; first compound 0.3 µM; hits give low values
Just a reminder that ties go to f: only viability, T/C strictly below 6% counts as t.

Examples with answers:
INSERT INTO results (compound, target_under_test, category_label) VALUES
  ('CC(C)CC(NC(=O)C(Cc1ccccc1)NC(=O)c1cnccn1)B(O)O (stereo unspecified) + CN1CCN(c2cc(C(=O)Nc3cc4cc(-c5cnn(C)c5)ccc4cn3)ccn2)CC1', '855422-203-R-J1-PDC complex spheroids, viability', 't'),
  ('NC(=O)C(=Cn1cnc(-c2cc(C(F)(F)F)cc(C(F)(F)F)c2)n1)c1cncnc1 + CN1CCN(c2cc(C(=O)Nc3cc4cc(-c5cnn(C)c5)ccc4cn3)ccn2)CC1', '855422-203-R-J1-PDC complex spheroids, viability', 't'),
  ('C=CC(=O)Nc1cc(Nc2nccc(-c3cn(C)c4ccccc34)n2)c(OC)cc1N(C)CCN(C)C + CNC(=O)c1ccc(Nc2nc(OC3CCCC3)c3c(-c4ccc5nc(C)oc5c4)c[nH]c3n2)c(OC)c1', '855422-203-R-J1-PDC complex spheroids, viability', 'f');

**Q:** State whether 6% exceeds viability, T/C recorded for NC(=O)C(=Cn1cnc(-c2cc(C(F)(F)F)cc(C(F)(F)F)c2)n1)c1cncnc1 + CNC(=O)c1ccc(Nc2nc(OC3CCCC3)c3c(-c4ccc5nc(C)oc5c4)c[nH]c3n2)c(OC)c1 .
**A:** f

**Q:** State whether 6% exceeds viability, T/C recorded for C=CC(=O)Nc1cc(Nc2nccc(-c3cn(C)c4ccccc34)n2)c(OC)cc1N(C)CCN(C)C + CN1CCN(c2cc(C(=O)Nc3cc4cc(-c5cnn(C)c5)ccc4cn3)ccn2)CC1 .
**A:** f

**Q:** State whether 6% exceeds viability, T/C recorded for CC(C)CC(NC(=O)C(Cc1ccccc1)NC(=O)c1cnccn1)B(O)O (stereo unspecified) + CNC(=O)c1ccc(Nc2nc(OC3CCCC3)c3c(-c4ccc5nc(C)oc5c4)c[nH]c3n2)c(OC)c1 .
**A:** t
